Values compiled from ChEMBL document CHEMBL3217466.

# Assay system: UniProt O42713
# Method description: Competitive inhibition of mushroom tyrosinase assessed as decrease in rate of dopachrome formation using L-tyrosine as substrate at 1.25 uM by Lineweaver-Burk plot analysis
Observed property: Ki
Answer with the value and then the unit.

Recorded result, COc1ccc(/C=C2\CC(=O)NC2=O)cc1O , Ki: 0.424 µM

----------
# Assay system: UniProt O42713
# Method description: Inhibition of mushroom tyrosinase assessed as decrease in dopachrome production using L-tyrosine as substrate by spectrophotometric analysis
Observed property: IC50 (nM)
Give the quantity in nM, number only.

Recorded result, COc1ccc(/C=C2\CC(=O)NC2=O)cc1O , IC50: 2230

----------
# Method description: Cytotoxicity against mouse B16F10 cells assessed as cell viability at 1 uM after 48 hrs by MTT assay
# Type: cell-based, B16-F10
# Measurement parameters: read-out: Activity
Observed property: viability at 48 h, 1 µM (%)
Give the quantity in %, number only.

Recorded result, COc1ccc(/C=C2\CC(=O)NC2=O)cc1O , viability at 48 h, 1 µM: 98.9

----------
# Assay system: Tyrosinase (Agaricus bisporus, UniProt O42713)
# Sequence (O42713 whole entry): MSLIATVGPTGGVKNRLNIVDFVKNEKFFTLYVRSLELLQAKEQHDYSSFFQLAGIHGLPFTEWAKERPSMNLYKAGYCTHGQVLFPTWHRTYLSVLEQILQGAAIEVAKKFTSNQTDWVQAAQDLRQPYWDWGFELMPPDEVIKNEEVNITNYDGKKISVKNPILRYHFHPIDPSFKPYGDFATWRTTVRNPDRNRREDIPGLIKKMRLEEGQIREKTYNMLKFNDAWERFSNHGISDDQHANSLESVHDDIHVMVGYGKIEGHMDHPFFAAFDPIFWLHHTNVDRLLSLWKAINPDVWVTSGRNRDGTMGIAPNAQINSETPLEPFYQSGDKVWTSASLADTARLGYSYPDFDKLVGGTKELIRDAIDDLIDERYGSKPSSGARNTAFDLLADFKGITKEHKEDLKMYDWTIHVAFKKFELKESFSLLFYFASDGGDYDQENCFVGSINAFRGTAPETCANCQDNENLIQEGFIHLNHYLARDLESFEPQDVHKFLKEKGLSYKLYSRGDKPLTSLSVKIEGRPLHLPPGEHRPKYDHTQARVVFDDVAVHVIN
# Method description: Competitive inhibition of mushroom tyrosinase assessed as decrease in rate of dopachrome formation using L-tyrosine as substrate at 20 uM by Lineweaver-Burk plot analysis
Observed property: Ki (nM)
Give the quantity in nM, number only.

Recorded result, COc1ccc(/C=C2\CC(=O)NC2=O)cc1O , Ki: 1820

----------
# Method description: Cytotoxicity against mouse B16F10 cells assessed as cell viability at 10 uM after 48 hrs by MTT assay
# Format: cell-based, B16-F10
# Measurement parameters: read-out: Activity
Observed property: viability at 48 h, 10 µM

Recorded result, COc1ccc(/C=C2\CC(=O)NC2=O)cc1O , viability at 48 h, 10 µM: 97.8%
